Origin of the recorded values: patent US20150037269A1

assay.text: Clinical study: single radiolabelled topical dose to axilla or palm of healthy male subjects
Type: in vivo, human
stated.conditions: male, human, plasma, topical, 3.05 mg, unoccluded axilla (Cohort A); CV 144%
endpoint: Cmax (pg/mL)
Enter your answer as a number in pg/mL; do not include the unit.

Task item: Which Cmax value belongs to OC(c1ccccc1)(c1ccccc1)C12CC[N+](CCOCc3ccccc3)(CC1)CC2 [umeclidinium] ?
Reply: 2.33
